Data credit: patent US11021444B2

Kindly supply the reported EC50 values for the records listed here.
Test system: RSV replicon
Assay: microbe, parasite or virus in culture
Format: cell-based
Conditions: human respiratory syncytial virus, read-out: EC50, the concentration of the drug required for reducing RSV replicon RNA by 50%

COc1cc(C(=O)NC[C@](O)(c2cc3c(c(-c4ccc(C#N)cc4)n2)OC[C@]3(C)N)C(F)(F)F)ccc1OCCO [Compound 604d] = < 1000 nM

Your task in this section: give EC50 for each listed record.
1. COc1cc(C(=O)NCC(O)(c2cc(C(N)CO)cc(-c3ccc(F)c(Cl)c3)n2)C(F)(F)F)ccc1OC1CC1 (centres unmarked)
2. COc1cc(C(=O)NCC(C)(F)c2ccc(OC)c(-c3ccc(F)c(Cl)c3)n2)ccc1OCCF (centres unmarked)
3. COc1cc(C(=O)NCC(O)(c2ccc(OC)c(-c3ccc(F)c(Cl)c3)n2)C(F)F)ccc1OC1CC1 (centres unmarked)
4. COc1cc(C(=O)NCC(O)(Cn2ccnn2)c2ccc(OC)c(-c3ccc(F)c(Cl)c3)n2)ccc1OCCO (centres unmarked)
5. CNC(C)(C)c1cc(-c2ccc(F)c(Cl)c2)nc(C(O)(CNC(=O)c2ccc(OC3CC3)c(OC)c2)C(F)(F)F)c1 (centres unmarked)
6. COc1cc(C(=O)NCC(O)(CN2CCC2)c2ccc(OC)c(-c3ccc(F)c(Cl)c3)n2)ccc1OC1CC1 (centres unmarked)
7. CC#CC(O)(CNC(=O)c1ccc(OCCF)c(OC)c1)c1ccc(OC)c(-c2ccc(F)c(Cl)c2)n1 (centres unmarked)
8. COc1cc(C(=O)NCC(O)(c2cc(C(C)(C)N)cc(-c3ccc(F)cc3)n2)C(F)(F)F)ccc1OC1CC(O)C1 (centres unmarked)

< 1000 nM
< 1000 nM
< 1000 nM
< 1000 nM
< 1000 nM
< 1000 nM
< 1000 nM
< 1000 nM

Your task in this section: give EC50 for each listed record.
1. COc1cc(C(=O)NCC(O)(c2cc(C(C)(C)N)cc(-c3ccc(C#N)cc3)n2)C(F)(F)F)ccc1OCCO (centres unmarked) [Compound 623b]
2. COc1cc(C(=O)NCC(O)(c2cc(C(C)(C)N)cc(-c3ccc(F)c(Cl)c3)n2)C2CC2)ccc1OC1CC1 (centres unmarked)

1: < 1000 nM; 2: < 1000 nM

---

Kindly supply the reported EC50 values for the records listed here.
Test system: Respiratory Syncytial Virus (RSV) long strain
Assay: microbe, parasite or virus in culture
Type: cell-based
Settings: human respiratory syncytial virus, HEp-2, 120 h, read-out: 50% effective concentration (EC50), HEp-2 cells infected with RSV long strain, 5 days, CCK-8 readout; Tables A and B list compounds by EC50 band

COc1cc(C(=O)NCC(O)(c2cc(C(C)(C)NC(C)C)cc(-c3ccc(F)c(Cl)c3)n2)C(F)(F)F)ccc1OC1CC1 (stereo not shown) = < 1000 nM
COc1cc(C(=O)NCC(O)(c2ccc(OC)c(-c3ccc(F)c(Cl)c3)n2)C2CC2)ccc1OCC(N)=O (single isomer, unassigned) = < 1000 nM
COc1cc(C(=O)NCC(O)c2ccc3c(n2)-c2c(sc4c(F)cccc24)CO3)ccc1OCCO (stereo not shown) = 1000 to 50000 nM

Your task in this section: give EC50 for each listed record.
1. COc1cc(C(=O)NC[C@@](O)(c2cc(C(C)(C)N)cc(-c3ccc(F)c(Cl)c3)n2)C(F)(F)F)ccc1OCCO
2. CC(C)(N)c1cc(-c2ccc(F)c(Cl)c2)nc(C(O)(CNC(=O)c2cnc(Cl)s2)C(F)(F)F)c1 (stereo not shown)

1000 to 50000 nM
1000 to 50000 nM

Your task in this section: give EC50 for each listed record.
1. COc1cc(C(=O)NCC(O)(c2cc(C(C)(C)NCCO)cc(-c3ccc(F)c(Cl)c3)n2)C(F)(F)F)ccc1OC1CC1 (stereo not shown)
2. COc1cc(C(=O)NCC(O)(c2cc3c(c(-c4ccc(F)c(Cl)c4)n2)OCC3(C)C)C(F)(F)F)cc2ccc(C)nc12 (stereo not shown)

1. < 1000 nM
2. < 1000 nM

---

Kindly supply the reported IC50 values for the records listed here.
Molecular target: recombinant RSV complex (Human respiratory syncytial virus A, UniProt P28887)
Sequence (P28887 whole entry): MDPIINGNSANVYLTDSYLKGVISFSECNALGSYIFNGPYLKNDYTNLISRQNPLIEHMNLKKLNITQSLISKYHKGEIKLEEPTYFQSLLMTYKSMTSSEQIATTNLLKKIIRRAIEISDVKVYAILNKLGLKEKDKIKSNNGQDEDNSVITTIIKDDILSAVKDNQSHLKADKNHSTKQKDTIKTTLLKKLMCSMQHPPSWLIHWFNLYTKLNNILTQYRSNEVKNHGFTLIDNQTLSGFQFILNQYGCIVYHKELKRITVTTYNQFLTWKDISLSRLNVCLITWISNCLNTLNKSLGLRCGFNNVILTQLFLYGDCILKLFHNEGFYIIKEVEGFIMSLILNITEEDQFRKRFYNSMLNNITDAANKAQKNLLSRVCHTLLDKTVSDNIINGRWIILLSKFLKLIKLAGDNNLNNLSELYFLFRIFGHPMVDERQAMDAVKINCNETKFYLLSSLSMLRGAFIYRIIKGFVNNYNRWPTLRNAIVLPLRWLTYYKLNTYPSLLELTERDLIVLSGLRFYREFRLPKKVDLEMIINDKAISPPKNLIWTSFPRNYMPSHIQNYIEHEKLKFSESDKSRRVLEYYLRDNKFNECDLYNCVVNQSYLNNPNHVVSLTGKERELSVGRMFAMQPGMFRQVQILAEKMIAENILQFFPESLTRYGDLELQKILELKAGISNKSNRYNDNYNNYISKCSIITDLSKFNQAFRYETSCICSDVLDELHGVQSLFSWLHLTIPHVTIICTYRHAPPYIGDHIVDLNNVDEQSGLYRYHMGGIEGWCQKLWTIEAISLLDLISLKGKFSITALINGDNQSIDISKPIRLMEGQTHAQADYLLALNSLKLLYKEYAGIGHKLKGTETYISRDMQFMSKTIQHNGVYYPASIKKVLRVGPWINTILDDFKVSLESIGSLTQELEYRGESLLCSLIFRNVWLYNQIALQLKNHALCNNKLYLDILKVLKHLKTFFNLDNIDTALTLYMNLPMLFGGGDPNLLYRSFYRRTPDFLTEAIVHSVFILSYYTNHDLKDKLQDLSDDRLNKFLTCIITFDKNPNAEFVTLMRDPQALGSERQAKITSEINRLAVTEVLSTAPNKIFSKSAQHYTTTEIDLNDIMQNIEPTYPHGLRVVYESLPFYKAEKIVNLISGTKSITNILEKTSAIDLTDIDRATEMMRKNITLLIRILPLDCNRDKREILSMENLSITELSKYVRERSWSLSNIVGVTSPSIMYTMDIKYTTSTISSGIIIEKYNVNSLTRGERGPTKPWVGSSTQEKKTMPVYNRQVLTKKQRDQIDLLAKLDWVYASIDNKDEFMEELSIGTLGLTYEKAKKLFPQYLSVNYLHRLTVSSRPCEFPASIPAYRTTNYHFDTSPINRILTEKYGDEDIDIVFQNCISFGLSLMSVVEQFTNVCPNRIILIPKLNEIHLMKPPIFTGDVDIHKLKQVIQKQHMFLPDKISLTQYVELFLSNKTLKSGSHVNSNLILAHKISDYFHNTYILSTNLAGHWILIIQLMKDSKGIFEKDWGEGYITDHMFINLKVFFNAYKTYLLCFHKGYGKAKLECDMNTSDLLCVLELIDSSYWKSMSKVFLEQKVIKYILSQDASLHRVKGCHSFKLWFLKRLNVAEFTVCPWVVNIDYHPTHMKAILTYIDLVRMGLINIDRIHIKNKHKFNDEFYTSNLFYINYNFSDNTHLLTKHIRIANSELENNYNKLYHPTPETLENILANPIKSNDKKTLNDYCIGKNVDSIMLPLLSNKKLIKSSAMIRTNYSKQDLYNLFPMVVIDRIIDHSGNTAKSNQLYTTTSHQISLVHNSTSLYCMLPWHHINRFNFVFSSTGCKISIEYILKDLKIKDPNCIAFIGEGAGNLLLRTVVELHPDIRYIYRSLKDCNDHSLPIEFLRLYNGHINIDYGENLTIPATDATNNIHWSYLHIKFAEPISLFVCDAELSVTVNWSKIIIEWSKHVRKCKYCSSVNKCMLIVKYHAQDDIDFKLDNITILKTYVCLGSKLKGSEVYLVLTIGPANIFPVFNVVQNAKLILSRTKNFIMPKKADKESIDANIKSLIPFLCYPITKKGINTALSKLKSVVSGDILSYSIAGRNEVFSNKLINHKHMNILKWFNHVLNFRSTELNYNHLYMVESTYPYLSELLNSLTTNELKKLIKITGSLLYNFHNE
Sequence (P03421 whole entry, further chain): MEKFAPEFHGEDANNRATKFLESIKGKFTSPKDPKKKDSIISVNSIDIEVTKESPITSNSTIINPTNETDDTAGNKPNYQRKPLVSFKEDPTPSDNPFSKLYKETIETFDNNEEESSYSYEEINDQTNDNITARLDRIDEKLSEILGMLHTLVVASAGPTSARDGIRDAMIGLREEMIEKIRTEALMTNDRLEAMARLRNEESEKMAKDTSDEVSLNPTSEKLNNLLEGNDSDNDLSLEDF
Test: RSV Polymerase Inhibition Assay
Assay type: biochemical

Observe how each entry below is paired with its result.
COc1cc(C(=O)NCC(C)(O)c2ccc(OC)c(-c3ccc(F)c(Cl)c3)n2)ccc1-n1cccn1 (centres unmarked) [Compound 128] = < 1 µM
COc1cc(C(=O)NCC(O)(c2cc3c(c(-c4ccc(F)nc4)n2)OCC3(C)N)C(F)(F)F)ccc1OCCO (centres unmarked) [Compound 492] = < 10 µM
COc1cc(C(=O)NCC(C)(O)c2ccc(OC)c(-c3ccc(F)c(Cl)c3)n2)ccc1-c1cccnc1 (centres unmarked) [Compound 146] = < 10 µM
CCc1cc(-c2ccc(F)cc2)nc(C(C)(O)CNC(=O)c2ccc(OCCO)c(OC)c2)c1 (centres unmarked) [Compound 353] = < 1 µM

Your task in this section: give IC50 for each listed record.
1. Cc1nc(C(=O)NCC(O)(c2cc(C(C)(C)N)cc(-c3ccc(F)cc3)n2)C(F)(F)F)co1 (centres unmarked) [Compound 607]
2. COc1cc(C(=O)NCC(O)(CO)c2cc3c(c(-c4ccc(F)c(Cl)c4)n2)OCC3(C)C)ccc1OC1CCNC1=O (centres unmarked) [Compound 219]
3. COc1cc(C(=O)NCC(O)(c2ccc(OC)c(-c3ccc(F)c(Cl)c3)n2)C2CC2)ccc1CCCO (centres unmarked) [Compound 426]
4. COc1cc(C(=O)NCC(N)(c2cc(C(C)(C)N)cc(-c3ccc(F)c(Cl)c3)n2)C(F)(F)F)ccc1OC1CC1 (centres unmarked) [Compound 504]
5. COc1cc(C(=O)NCC(O)(Cn2ccnc2)c2ccc(OC)c(-c3ccc(F)c(Cl)c3)n2)ccc1OCCO (centres unmarked) [Compound 191]
6. COc1cc(C(=O)NC[C@](O)(c2cc3c(c(-c4ccc(C#N)cc4)n2)OC[C@@]3(C)N)C(F)(F)F)ccc1OCCO [Compound 604c]

< 10 µM
< 1 µM
< 10 µM
< 1 µM
< 1 µM
< 10 µM

Your task in this section: give IC50 for each listed record.
1. COc1cc(C(=O)NCC(O)(c2ccc(OC)c(-c3ccc(F)c(Cl)c3)n2)C2CNC2)ccc1OC1CC1 (centres unmarked) [Compound 463]
2. CCc1cc(-c2ccc(F)c(Cl)c2)nc(C(C)(O)CNC(=O)c2ccc(OCC(F)F)c(OC)c2)c1 (centres unmarked) [Compound 440]
3. COc1cc(C(=O)NCC(O)(c2cc(C(C)(C)N)cc(-c3ccc(Cl)nc3)n2)C(F)(F)F)ccc1OC1CC1 (centres unmarked) [Compound 567]
4. COc1cc(C(=O)NCC(O)(c2cc(C3(N)COC3)cc(-c3ccc(F)cc3)n2)C(F)(F)F)ccc1OC1CC1 (centres unmarked) [Compound 595]

1: < 1 µM; 2: < 1 µM; 3: < 1 µM; 4: < 1 µM

---

Test system: Respiratory Syncytial Virus (RSV) long strain
Assay: microbe, parasite or virus in culture
Type: cell-based
Settings: human respiratory syncytial virus, HEp-2, 120 h, read-out: 50% effective concentration (EC50), HEp-2 cells infected with RSV long strain, 5 days, CCK-8 readout; Tables A and B list compounds by EC50 band
Kindly supply the reported EC50 values for the records listed here.

Observe how each entry below is paired with its result.
COc1cc(C(=O)NCC(O)(c2cc(C(C)(C)N)cc(-c3ccc(F)c(Cl)c3)n2)C(F)(F)F)ccc1NS(C)(=O)=O (centres unmarked) [Compound 593] = < 1000 nM
COc1cc(C(=O)NC[C@@](O)(c2cc3c(c(-c4ccc(C#N)cc4)n2)OC[C@]3(C)N)C(F)(F)F)ccc1OCCO [Compound 604b] = 1000 to 50000 nM
COc1ccc(C(O)(CNC(=O)c2ccc3[nH]c(=O)n(C)c3c2)C(F)(F)F)nc1-c1ccc(F)c(Cl)c1 (centres unmarked) [Compound 267] = < 1000 nM
COc1cc(C(=O)NCC(O)(Cn2ccnc2)c2cc3c(c(-c4ccc(F)c(Cl)c4)n2)OCC3(C)C)cc2cccnc12 (centres unmarked) [Compound 226] = < 1000 nM
COc1cc(C(=O)NCC(O)(c2cc3c(c(-c4ccc(F)c(Cl)c4)n2)OCCC3(C)C)C2CC2)ccc1OCCO (centres unmarked) [Compound 312] = < 1000 nM
COc1cc(C(=O)NCC(C)(F)c2ccc(OC)c(-c3ccc(F)c(Cl)c3)n2)ccc1OCCO (centres unmarked) [Compound 365] = < 1000 nM
COc1ccc(C(=O)NCC(C)(O)c2cccc(-c3csc4c(F)cccc34)n2)cc1OC (centres unmarked) [Compound 142] = < 1000 nM
C#CC(O)(CNC(=O)c1ccc(OCCF)c(OC)c1)c1ccc(OC)c(-c2ccc(F)c(Cl)c2)n1 (centres unmarked) [Compound 127] = < 1000 nM

Your task in this section: give EC50 for each listed record.
1. COc1ccc(C(C)(O)CNC(=O)c2ccc(-c3nc(C)no3)cc2)nc1-c1ccc(F)c(Cl)c1 (centres unmarked) [Compound 175]
2. COc1cc(C(=O)NCC(=O)c2cc3c(c(-c4ccc(F)c(Cl)c4)n2)OCCC3)ccc1OCCO [Compound 304]
3. COc1ccc(C(O)(CNC(=O)c2ccc3c(c2)[nH]c(=O)n3C)C(F)(F)F)nc1-c1ccc(F)c(Cl)c1 (centres unmarked) [Compound 268]
4. COc1cc(C(=O)NCC(=O)c2cc3c(c(-c4ccc(F)c(Cl)c4)n2)OCC3(C)O)ccc1OC1CC1 (centres unmarked) [Compound 473]
5. COc1cc(C(=O)NCC(O)(c2cc(C(C)(C)N)cc(-c3ccc(C#N)cc3)n2)C(F)(F)F)ccc1OC1CC1 (centres unmarked) [Compound 527]
6. COc1cc(C(=O)NCC(O)(c2cc(C3(N)COC3)cc(-c3ccc(F)cc3)n2)C(F)(F)F)ccc1OC1CC1 (centres unmarked) [Compound 595]

1: 1000 to 50000 nM; 2: < 1000 nM; 3: 1000 to 50000 nM; 4: < 1000 nM; 5: < 1000 nM; 6: < 1000 nM
